This collection of values is drawn from paper PMC3210610.

# test.system: neuraminidase (NA) of A/Guangdong/05/2009 (H1N1) (Influenza A virus (A/Managua/5248.03/2009(H1N1)), UniProt E0V7D1)
# condition.description: 0.15 mM 4-MUNANA, MES pH 6.5, 4 mM CaCl2, 37 °C, 1 h preincubation; Figure 2 legend says chemiluminescence assay
quantity.kind: IC50 (µM)
Number in µM, nothing else.

IC50 for C=CCOc1cc(C=O)ccc1O [compound 15, 3-(allyloxy)-4-hydroxybenzaldehyde] ? 25.1

---

# test.system: neuraminidase (NA) of A/GuangdongSB/01/2009 (H1N1) (Influenza A virus (A/Managua/5248.03/2009(H1N1)), UniProt E0V7D1)
# condition.description: 0.15 mM 4-MUNANA, MES pH 6.5, 4 mM CaCl2, 37 °C, 1 h preincubation; Figure 2 legend says chemiluminescence assay
quantity.kind: pIC50
Scale for pIC50: -log10 of concentration given in mol/L; no unit attached.

pIC50 for C=CCOc1cc(C=O)ccc1O [compound 15, 3-(allyloxy)-4-hydroxybenzaldehyde] ? 4.57
